Experiment: Toxicity / body weight in HCT116 xenografted mice
Conditions: NCr Nude, mouse, in vivo, intravenous, tail vein injection, read-out: maximum tolerated dose
property.label: MTD (mg/kg)
Respond numerically; units are mg/kg and should not be typed.

Task: What does the data say about its MTD? Entry: CC[C@@H]1C(=O)N(C)c2cnc(Nc3ccc(C(=O)NC4CCN(C)CC4)cc3OC)nc2N1C1CCCC1 [Free Drug, BI 2536]
Result: 100
